Overview of recorded Circularity (4π*area/perimeter^2, 1 = perfect circle), averages for various compounds
# System: 4T1 cells
# protocol: Proof-of-principle drug screen on automatically injected 4T1 multicellular spheroids in collagen gel, 96 well plate
# Format: cell-based, mouse
# conditionSet: 1:1000 dilution (10 μM); automated analysis of fluorescent actin staining at day 4; Figure 7C; ctrl 0.15
property: Circularity (4π*area/perimeter^2, 1 = perfect circle), averages

| compoundStructureString | reportedMeasurement |
| --- | --- |
| CC(C)(O)/C=C/C(=O)[C@](C)(O)[C@H]1[C@H](O)C[C@@]2(C)[C@@H]3CC=C4[C@@H](C=C(O)C(=O)C4(C)C)[C@]3(C)C(=O)C[C@]12C | 0.78 |
| CC(C)(C)n1nc(-c2ccc(Cl)cc2)c2c(N)ncnc21 | 0.19 |
| O=c1cc(N2CCOCC2)oc2c(-c3ccccc3)cccc12 | 0.26 |

----------
Overview of recorded Circularity (4π*area/perimeter^2, 1 = perfect circle), averages for various compounds
# Tested on: 4T1 cells
# protocol: Proof-of-principle drug screen on automatically injected 4T1 multicellular spheroids in collagen gel, 96 well plate
# Format: cell-based, mouse
# conditionSet: 1:1000 dilution (10 μM); automated analysis of fluorescent actin staining at day 4; Figure 7C; ctrl 0.15
property: Circularity (4π*area/perimeter^2, 1 = perfect circle), averages

| compound | reportedMeasurement |
| --- | --- |
| COc1cc2ncnc(Nc3cccc(Cl)c3)c2cc1OC [AG1478] | 0.19 |
| N#CC(C#N)=Cc1cc(O)c(O)c(O)c1 [AG-82] | 0.24 |
| NC(=O)c1ccc(-c2nc(-c3ccc4c(c3)OCO4)c(-c3ccccn3)[nH]2)cc1 [SB-431542] | 0.22 |
| CCN(CC)CCCC(C)Nc1nc(C)cc(Nc2ccc3nc(C)cc(N)c3c2)n1 (centres unmarked) [NSC23766] | 0.29 |
| C[C@@H](N)[C@H]1CC[C@H](C(=O)Nc2ccncc2)CC1 [Y-27632] | 0.35 |
